melting point values for the compounds below.
recorded-endpoint: melting point

compound	recorded-endpoint	reported-measurement
COc1nc(C(F)(F)F)c(F)c(=O)n1-c1cc(C(=O)O)c(Cl)cc1F	melting point	199 to 201 °C
c1coc(Cn2c(NC3CCN(CCNc4nccs4)CC3)nc3ccccc32)c1	melting point	153 °C
CC(C)(c1ccc(OCCO)cc1)c1ccc(OCCO)cc1	melting point	110 to 111 °C
Fc1ccc(-c2cc(Cl)nc3ccccc23)cc1	melting point	118 °C
CCCc1nn(-c2ccc(C(F)(F)F)cn2)cc1CCCOc1cc(CCC(=O)O)n(-c2ccccc2)n1	melting point	149 to 150 °C
CCC(O)(c1c(C(C)C)nn2ccccc12)C(C)C (stereo not given)	melting point	96 to 98 °C
C[C@@H](Cn1ncc2ccc(OC[C@@H]3CO3)c(C=O)c21)NC(=O)OCc1ccccc1	melting point	90 to 92 °C
C#Cc1cc2ncc(C#N)c(Nc3cc(OC)c(Cl)cc3Cl)c2s1	melting point	198 to 200 °C
OC(Cn1cncn1)(Cn1ncnc1S)c1ccc(F)cc1F (stereo not given)	melting point	187 °C
COCCNC(=O)c1nc(NC(C)=O)c2cc(Cc3ccc(F)cc3)cnc2c1OCc1ccccc1	melting point	147 to 149 °C
CCOC(=O)c1cc2c(OC[C@@H](O)CN3CCC(c4ccc5ccccc5c4)CC3)cccc2[nH]1	melting point	115 to 117 °C
O=S(=O)(c1cccc(C(F)(F)F)c1)c1cc(Br)nc(N2CCNCC2)c1	melting point	160 to 162 °C
CCCCOc1ccc(S(=O)(=O)C2(C(=O)O)CCN(Cc3ccc(OCCN4CCCCC4)cc3)CC2)cc1	melting point	98 °C
Clc1ccc2nc(-c3cccs3)c(I)n2n1	melting point	205 to 209 °C
COC=C(C(=O)OC)c1ccccc1COc1ccccc1	melting point	60 °C
CCCCc1ncc(/C=C2/C(=O)NC(=O)N2C)n1Cc1ccc(C(=O)O)cc1	melting point	248 to 250 °C
COc1cc(Nc2nccc(-c3ccc(N4CCN(CCN)CC4)nc3)n2)cc(OC)c1OC	melting point	88 to 89 °C
CSc1sc(-c2ccn(S(C)(=O)=O)n2)c2c1C(=O)CC(C)(C)C2	melting point	193 to 195 °C
CC(=O)Nc1ccc2nc(CN3CCCCC3)ccc2c1	melting point	182 to 184 °C
CC(C)(C)OC(=O)c1ccc(NC2CCc3cc4nc(COCc5ccccc5)[nH]c(=O)c4cc32)cc1 (racemic)	melting point	194 to 195 °C
N#Cc1nn(-c2c(Cl)cc(C(F)(F)F)cc2Cl)cc1-c1ccccc1C(F)(F)F	melting point	142 to 143 °C
O=C(N=c1ccn(-c2ccccc2)nc1)c1ccccc1	melting point	175 to 176 °C
CN1C(=O)Cc2cc(CCCl)ccc21	melting point	136 °C
COc1cc(OC)cc(C2(Cl)C(=O)Nc3ccc(Cl)cc32)c1 (stereo not given)	melting point	157 °C
CN1C(=O)CN(c2cccc(I)c2)NC1=O	melting point	180 °C
O=C1C=CC(=C(c2ccccc2)c2ccccc2)O1	melting point	110 to 112 °C
CSc1c(C)c(-c2cc(OS(=O)(=O)C(F)(F)F)c(Cl)cc2F)nn1C	melting point	54 to 56 °C
CNc1nc(-c2ccccc2)ccc1[N+](=O)[O-]	melting point	98 to 99 °C
COC(=O)CCCc1cc2cc(Cl)ccc2n1S(=O)(=O)c1ccc(C(C)C)cc1	melting point	95 to 97 °C
CC(OCc1cc2nc(C(F)(F)F)ccc2n1S(=O)(=O)c1ccccc1)C(=O)O (stereo not given)	melting point	140 °C
CN1C2C=C(c3ccc(F)cc3)CC1CC2 (stereo not given)	melting point	62 to 63 °C
CN(C)CCN(C(=O)c1cc([N+](=O)[O-])ccc1Br)c1ccnc2cc3c(cc12)OCO3	melting point	204 to 205 °C
CCOC(=O)Cn1cc(Cl)cnc1=O	melting point	175 to 177 °C
CCS(=O)c1nn(-c2ccccc2)c(=O)c2c(N)scc12 (stereo not given)	melting point	204 to 205 °C
O=C1c2ccccc2-c2c1c1ccccc1c(=O)n2CCCCCCCCCCCNS(=O)(=O)c1ccccc1	melting point	170 to 172 °C
O=[N+]([O-])c1cc(-c2ccc(Cl)cc2)[nH]c1SC(F)(F)F	melting point	185 to 193 °C
CCC(O)(c1ccc(Cl)cc1)c1ccc(OCc2cccc(C)n2)cc1 (stereo not given)	melting point	100 to 101 °C
ONC1CCn2c1cc1ccccc12 (stereo not given)	melting point	159 to 161 °C
CCCC(=O)c1ccc(OCCCCC(=O)O)c(Cl)c1Cl	melting point	102 to 103 °C
CCOC(=O)c1ccccc1-n1cnc2c(C)c(C(=O)OCC)c(C)cc2c1=O	melting point	116 to 117 °C

====

compound	melting point
C=CCCC(O)=C(C#N)C(=O)Nc1ccc(Cl)cc1	138 °C
COc1ccc(Cc2nc(C)c[nH]2)cc1	108 to 109 °C
N#Cc1ccc(N2CCC(=O)C2)c2ccccc12	153 to 154 °C
CCc1cc2c(ccc(=O)n2Cc2ccc(NC(=O)c3ccccc3S(=O)(=O)O)cc2)c(CC)n1	233 to 236 °C
CC(C)(C)c1nc(C=NO)nc(C(C)(C)C)c1O	205 to 220 °C
c1ccc2c(c1)nc(NC1CCCC1)c1nncn12	257 to 260 °C
CCN1C[C@@H](O)[C@H](NC2CCCCC2)C1 (relative stereo)	68 to 71 °C
CNC(=O)Oc1cc(C)c(NS(C)(=O)=O)c(C)c1	178 to 185 °C
CN1CCOc2nc(Cl)c(Cl)nc21	170 to 172 °C
COc1cc2c(cc1Cl)C(=O)Cc1ccc(F)cc1S2	195 to 197 °C
O=C1NC(=O)C2CC(SC3=CCC4C(=O)NC(=O)C4C3)=CCC12 (stereo not drawn)	204 to 208 °C
CCCCn1c(=Nc2ccccc2)sc2ncccc2c1=O	68 to 69 °C
Cc1cccc(NC(=O)NCC(=O)N(CC(=O)N2CCCc3ccccc32)c2ccccc2)c1	167 °C
N#CC(C#N)=C1N(CCCN2CCOCC2)CCN1C1CCN(C2CC2)CC1	104 to 106 °C
CCN(CC)Cc1nnc2n1-c1ccc(Cl)cc1C(c1ccccc1)=NC2	130 to 132 °C
CC(=O)N1CCc2ccc(S(=O)(=O)n3c(CCCC(=O)O)cc4cc(Cl)ccc43)cc2C1	95 to 97 °C
CNC(=NCCSCc1cc(CN2CCCCC2)ccn1)NC#N	79 to 81 °C
CCCCC(O)CN1N=CCCC1c1ccc(Cl)c(Cl)c1 (stereo not drawn)	80 to 81 °C
CC(C)(C)[C@H]1CC[C@H](CCC(=O)N2C(=O)OC[C@@H]2Cc2ccccc2)CC1	132 to 135 °C
CCCCCCCCC=CCCCCCCCC(=O)NCCCSc1ccncc1	50 to 50.5 °C
O=C(Nc1ccncc1)C1=C(O)CCn2c1nc1ccccc12	274 to 276 °C
COc1cc(NC(=O)CC23CC4CC(CC(C4)C2)C3)c(C)c([N+](=O)[O-])c1	141 to 142 °C
COc1cc2ncnc(N3CCC(C4(C)CO4)CC3)c2cc1OC (stereo not drawn)	125 to 128 °C
CC(=O)NCCC1CCc2ccc(O)cc21 (stereo not drawn)	107 to 108 °C
O=S(=O)(Cl)c1cccc(-c2cccc(-c3nc(-c4ccc(C(F)(F)F)cc4)cc(C(F)(F)F)n3)c2)c1	176 °C
O=c1ccn2c(c1O)C(c1ccc(Br)cc1)OCC2 (stereo not drawn)	200 to 212 °C
O=C(Nc1ccc(F)cc1F)c1cccc(Oc2cccc(C(F)(F)F)c2)n1	110 to 112 °C
Oc1cccc(C=Cc2nc(-c3ccccc3)c(-c3ccccc3)o2)c1	201 to 203 °C
CCCCc1cccc2[nH]c(C(=O)OCC)cc(=O)c12	132 to 133 °C
CNS(=O)(=O)C[C@H]1c2cc(OCCCC(F)(F)F)ccc2OC(C)(C)[C@@H]1O	178 to 179 °C
COc1ccc(Cl)cc1C(=O)NCc1ccc(-c2ccc(OC(C)(C)CO)cc2)cc1	109 °C
COc1ccccc1OCCCc1oc(-n2ccnc2C)nc1-c1ccc(Cl)cc1	84 to 85 °C
O=C(O)CN1C(=O)[C@@H](NC(CCc2ccccc2)C(=O)O)CSC1c1ccccc1 (stereo partly drawn)	132 to 138 °C
BrCCCSc1ccc2ncnn2n1	133 to 135 °C
COc1ccc(-c2nc(C(F)(F)F)cn2-c2ccc(Br)cc2)cc1	140 to 141 °C
O=C1c2ccccc2C(=O)c2c(NC3CCCCC3)cccc21	145 °C
CN(c1c(Cl)cc(Cl)cc1Cl)n1cc(C#N)c(=O)n(C)c1=O	175 to 178 °C
COC(=O)N=C(N)SC	72 to 77 °C
CCOC(=O)CC(O)CC(O)C=Cc1c(C(C)C)oc(-c2ccccc2)c1-c1ccc(F)cc1 (stereo not drawn)	98 to 100 °C
N#Cc1cccc(-c2nnc(-c3cccnc3)s2)c1	258 to 261 °C
c1cc2c(c(N3CCNCC3)n1)CCO2	89.5 °C
COC(=O)[C@H](CO)NC(=O)[C@H](CS)NC(C)=O	127 to 128 °C
COc1ccc2c(c1)N(C(C)=O)c1cccc(SC)c1S2	106 to 108 °C
